Assay: human hepatoma cell viability loss – ATP luminescence, cytotoxicity control for P. falciparum antimalarial project, primary screen (AID 2303)
Details: HepG2 viability, 24-48 h, at 10 µM
The source made the active and inactive calls.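 How the source made its calls: active means inhibition above 50%; inactive means the rest.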
Hi there, use one of these labels in your reply, thanks! active, inactive

Solved entries:
# compound, label_value
measured = [
    ("CCc1c[nH]c2c(N3CCCS3(=O)=O)cc(C(=O)N[C@@H](Cc3ccccc3)[C@H](O)CNC3CCCCC3)cc12", "inactive"),
    ("Nc1ccnc2ccc(NC(=O)CCCCCc3ccccc3)cc12", "inactive"),
    ("O=C(NCC1CCC(CNCCCc2ccccc2)CC1)c1cc(Cl)cc(Cl)c1 (configuration not stated)", "active"),
    ("O=C(Nc1cccc(-c2ccc(CN3CCNCC3)cc2)c1)c1cccc(Cl)c1", "inactive"),
    ("Cn1nc(C(F)(F)F)cc1-c1ccc(C(=O)Nc2ccc3c(c2)CNCC3(C)C)s1", "inactive"),
]

Req: Could you please tell me the result logged for `O=C(/C=C/c1cccc(Cl)c1)NCCCCCN1CCC(c2c[nH]c3ccccc23)CC1` in this assay?
Resp: inactive

Req: Any idea what this test logged for `CCCCCN1CCCN(Cc2cccc(NC(=O)c3ccc4ccccc4c3)c2)CC1` ?
Resp: inactive

Req: Look up the recorded call for `Nc1nc(N)c2c(ccc3c2ccn3Cc2cc3c(cc2Cl)OCO3)n1` in this test.
Resp: active

Req: What did the test return for `CN(C)c1cc(C(=O)N[C@@H](Cc2ccccc2)[C@H](O)CNC2CCCCC2)cc2[nH]ccc12` ?
Resp: inactive

Req: Status in this test for `CN(C(=O)Nc1ccc(F)cc1)C1CCN(CCCCCNC(=O)/C=C/c2ccc(Cl)c(Cl)c2)CC1` ?
Resp: inactive

Req: In this assay, the call recorded for `CCOc1ccc(C2CCN(CCN3CCC(NC(=O)c4ccc(-c5ccc(C(F)(F)F)cc5)cc4)CC3)CC2)c(OCC2CC2)c1` was what?
Resp: inactive

Req: Hi, do you know how `CCCOc1cc(OCCC)cc(-c2ccc(C(=O)Nc3ccc4ccc(C)nc4c3)c(=O)[nH]2)c1` came out in this test?
Resp: inactive

Req: // param item: `S=C(NCCCCCN1CCC(c2c[nH]c3ccccc23)CC1)Nc1cc(Cl)cc(Cl)c1` ; yields the recorded call
Resp: inactive

Req: What call does the record list for `CCCCCCN1CCC(NCc2cccc(C#N)c2)CC1` ?
Resp: inactive

Req: Please state the recorded outcome for this compound: `O=C(NC1CCN(CCN2CCc3ccccc3CC2)CC1)c1ccc(-c2ccc(C(F)(F)F)cc2)cc1`
Resp: inactive

Req: How did this test come out for `CNCCNCc1ccc(-c2cccc(-c3nc4ccc(F)cc4[nH]3)c2)cc1` ?
Resp: inactive

Req: What did the test return for OC1CCCN(Cc2ccc(-c3cccc(-c4nc5ccccc5[nH]4)c3)cc2)C1 (configuration not stated) ?
Resp: inactive
